STUDY_TARGET: KRAS G13D antigen (G13D-RT6, SEQ ID NO: 20) loaded on Lovo-DPA0301:DPB0501 cells (human)
PROTOCOL_SUMMARY: cell-based or functional assay
PROPERTY_LABEL: TCR Mut RLU/WT RLU (ratio)
Just the number please, in ratio, no unit attached.

BINDER: B8.2.4 TCR mutant β95Q-D (TCR, V domains shown) V domain 1: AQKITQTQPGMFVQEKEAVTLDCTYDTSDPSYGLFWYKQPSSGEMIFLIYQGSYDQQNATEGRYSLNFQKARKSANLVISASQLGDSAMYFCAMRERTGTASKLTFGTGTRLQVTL V domain 2: DVKVTQSSRYLVKRTGEKVFLECVQDMDHENMFWYRQDPGLGLRLIYFSYDVKMKEKGDIPEGYSVSREKKERFSLILESASTNQTSMYLCASSDTVPPQHFGDGTRLSILE
TCR Mut RLU/WT RLU / ratio: 0.6

BINDER: B8.2.4 TCR mutant β96T-K (TCR, V domains shown) V domain 1: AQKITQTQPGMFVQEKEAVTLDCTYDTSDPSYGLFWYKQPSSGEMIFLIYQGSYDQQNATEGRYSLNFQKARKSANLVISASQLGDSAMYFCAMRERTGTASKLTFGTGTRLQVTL V domain 2: DVKVTQSSRYLVKRTGEKVFLECVQDMDHENMFWYRQDPGLGLRLIYFSYDVKMKEKGDIPEGYSVSREKKERFSLILESASTNQTSMYLCASSQKVPPQHFGDGTRLSILE
TCR Mut RLU/WT RLU / ratio: 0.84

BINDER: B8.2.4 TCR mutant β97V-R (TCR, V domains shown) V domain 1: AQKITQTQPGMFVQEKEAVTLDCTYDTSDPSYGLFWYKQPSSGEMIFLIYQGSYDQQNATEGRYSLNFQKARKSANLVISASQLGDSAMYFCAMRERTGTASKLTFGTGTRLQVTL V domain 2: DVKVTQSSRYLVKRTGEKVFLECVQDMDHENMFWYRQDPGLGLRLIYFSYDVKMKEKGDIPEGYSVSREKKERFSLILESASTNQTSMYLCASSQTRPPQHFGDGTRLSILE
TCR Mut RLU/WT RLU / ratio: 0.37

BINDER: B8.2.4 TCR mutant β98P-S (TCR, V domains shown) V domain 1: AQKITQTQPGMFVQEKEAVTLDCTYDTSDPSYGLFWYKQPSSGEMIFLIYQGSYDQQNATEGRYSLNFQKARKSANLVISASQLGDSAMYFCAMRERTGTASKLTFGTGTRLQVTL V domain 2: DVKVTQSSRYLVKRTGEKVFLECVQDMDHENMFWYRQDPGLGLRLIYFSYDVKMKEKGDIPEGYSVSREKKERFSLILESASTNQTSMYLCASSQTVSPQHFGDGTRLSILE
TCR Mut RLU/WT RLU / ratio: 0.94

Now for another entry.
Requested field: TCR Mut RLU/WT RLU. Item: B8.2.4 TCR mutant β96T-V (TCR, V domains shown) V domain 1: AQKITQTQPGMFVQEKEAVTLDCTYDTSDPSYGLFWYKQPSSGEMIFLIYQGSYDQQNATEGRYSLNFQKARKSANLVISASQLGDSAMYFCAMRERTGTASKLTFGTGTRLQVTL V domain 2: DVKVTQSSRYLVKRTGEKVFLECVQDMDHENMFWYRQDPGLGLRLIYFSYDVKMKEKGDIPEGYSVSREKKERFSLILESASTNQTSMYLCASSQVVPPQHFGDGTRLSILE 0.97
